What PBM binding z-score was measured for each of the following?
Tested on: RARa:RXR (NR concentration 270 nM, RXRa partner concentration 90 nM)
Measurement protocol: PBM binding z-score (relative to random genomic background probes); higher = stronger binding; sequences stand for … in GC…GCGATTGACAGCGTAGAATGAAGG

Task: Give me measured PBM binding z-score, please, for this sequence: `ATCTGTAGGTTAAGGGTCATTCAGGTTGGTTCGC`
Result: 6.53

Task: Note down PBM binding z-score recorded for `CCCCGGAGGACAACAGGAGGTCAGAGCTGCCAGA`
Result: 2.7

Task: Tell me PBM binding z-score reported for `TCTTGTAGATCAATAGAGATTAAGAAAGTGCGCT`
Result: -0.0638

Task: Answer with the recorded PBM binding z-score for the sequence listed here: `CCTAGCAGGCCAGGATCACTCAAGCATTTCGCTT`
Result: -0.792

Task: Query PBM binding z-score for `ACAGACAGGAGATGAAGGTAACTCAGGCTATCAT`
Result: 0.204

Task: Please indicate PBM binding z-score recorded for `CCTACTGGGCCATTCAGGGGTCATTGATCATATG`
Result: 5.59

Task: Give the reported PBM binding z-score for this sequence. `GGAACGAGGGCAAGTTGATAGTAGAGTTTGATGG`
Result: 0.509

Task: Consider the sequence `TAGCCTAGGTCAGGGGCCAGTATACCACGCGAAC` and give its recorded PBM binding z-score.
Result: 1.42

Task: Supply measured PBM binding z-score of `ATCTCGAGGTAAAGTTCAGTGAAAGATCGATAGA` in your reply.
Result: 1.34

Task: Hello, please tell me recorded PBM binding z-score for this one: `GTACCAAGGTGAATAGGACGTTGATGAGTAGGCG`
Result: -0.0237

Task: Report measured PBM binding z-score; entry is `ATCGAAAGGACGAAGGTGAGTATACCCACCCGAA`
Result: -0.0536

Task: Find the measured PBM binding z-score of `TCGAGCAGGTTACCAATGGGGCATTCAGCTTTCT` and report it.
Result: 0.475

Task: Look up and state reported PBM binding z-score for `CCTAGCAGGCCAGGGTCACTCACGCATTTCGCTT`
Result: 3.17

Task: Hello, please tell me recorded PBM binding z-score for this one: `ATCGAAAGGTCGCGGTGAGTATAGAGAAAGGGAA`
Result: 3.63

Task: Input `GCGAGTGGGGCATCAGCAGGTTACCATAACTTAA` , output reported PBM binding z-score.
Result: 0.531

Task: Note PBM binding z-score for the sequence shown: `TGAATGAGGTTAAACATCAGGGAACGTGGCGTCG`
Result: 2.29

Task: Supply measured PBM binding z-score of `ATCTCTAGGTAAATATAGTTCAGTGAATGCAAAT` in your reply.
Result: 0.923

Task: Check the records and state PBM binding z-score for `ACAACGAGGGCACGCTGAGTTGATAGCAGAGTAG`
Result: 0.573

Task: Please supply the value of reported PBM binding z-score for the item `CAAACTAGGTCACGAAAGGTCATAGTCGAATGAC`
Result: 7.32

Task: For the sequence `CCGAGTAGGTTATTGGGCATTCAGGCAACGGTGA` , give its reported PBM binding z-score.
Result: -0.107

Task: Answer with the recorded PBM binding z-score of `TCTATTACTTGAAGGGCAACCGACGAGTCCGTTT` only.
Result: 1.02
